Target: Vitamin D3 receptor (Homo sapiens) (UniProt P11473)
Sequence (P11473 whole entry, looked up): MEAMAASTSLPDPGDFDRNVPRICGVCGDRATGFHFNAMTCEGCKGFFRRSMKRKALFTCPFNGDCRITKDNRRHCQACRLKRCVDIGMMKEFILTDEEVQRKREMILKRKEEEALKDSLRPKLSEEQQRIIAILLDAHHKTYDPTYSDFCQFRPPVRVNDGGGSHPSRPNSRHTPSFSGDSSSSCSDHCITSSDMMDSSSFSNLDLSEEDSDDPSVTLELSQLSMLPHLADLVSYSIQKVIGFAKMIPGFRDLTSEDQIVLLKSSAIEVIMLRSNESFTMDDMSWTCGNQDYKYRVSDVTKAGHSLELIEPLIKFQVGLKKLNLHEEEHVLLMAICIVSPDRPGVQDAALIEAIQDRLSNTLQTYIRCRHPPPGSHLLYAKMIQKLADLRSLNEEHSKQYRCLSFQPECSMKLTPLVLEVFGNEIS
Test: qHTS assay to identify small molecule antagonists of the vitamin D receptor (VDR) signaling pathway (AID 743223)
Settings: VDR-UAS-bla HEK293T, beta-lactamase FRET ratio, 16 h; series mostly up to 61 µM
Results filed as inconclusive are left out. Activity calls are given as the source filed them. The call rests on the fitted dose curve; in most records, active means well fitted inhibition curve with a large enough effect in the signal ratio in the repeat runs (not every such curve was filed as active); inconclusive means weak or mixed curves, or effect the other way; inactive means no such curve, though single readings can be large or run the other way; the % refers to the signal ratio.
parameter.measured: outcome

The examples below pair each entry with its known result.
Cc1ccnc2c1NC(=O)c1cccnc1N2C1CC1 ... inactive
OCCOCCN1CCN(C(c2ccccc2)c2ccc(Cl)cc2)CC1 (configuration not stated) ... inactive
COC(=O)/C=C/c1ccccc1 ... inactive
C=C(C)C1CC=C(C)C(OC(C)=O)C1 (configuration not stated) ... inactive
CCCCCCCCCCCCCCCCCl ... inactive

Fill in the recorded outcome for this compound, with Vitamin D3 receptor (Homo sapiens) (UniProt P11473) as test system: CC1COc2c(N3CCN(C)CC3)c(F)cc3c(=O)c(C(=O)O)cn1c23 (configuration not stated)
inactive

Fill in the recorded outcome for this compound, with Vitamin D3 receptor (Homo sapiens) (UniProt P11473) as test system: Nc1nc2ccccc2[nH]1
inactive
